experimental-system: hGLP-1R (Homo sapiens)
Sequence (P43220 24-463): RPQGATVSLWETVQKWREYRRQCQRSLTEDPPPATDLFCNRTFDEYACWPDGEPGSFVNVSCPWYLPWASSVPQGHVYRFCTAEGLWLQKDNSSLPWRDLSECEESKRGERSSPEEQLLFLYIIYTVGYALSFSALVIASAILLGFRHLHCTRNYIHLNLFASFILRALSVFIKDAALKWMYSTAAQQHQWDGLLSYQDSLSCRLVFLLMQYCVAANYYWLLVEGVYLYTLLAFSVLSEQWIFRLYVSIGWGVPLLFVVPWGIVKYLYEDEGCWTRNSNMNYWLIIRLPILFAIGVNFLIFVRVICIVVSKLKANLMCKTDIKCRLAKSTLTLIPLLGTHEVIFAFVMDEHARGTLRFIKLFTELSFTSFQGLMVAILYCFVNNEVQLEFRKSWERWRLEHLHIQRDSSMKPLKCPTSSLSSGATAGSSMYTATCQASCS
assay-protocol: Functional cAMP activity in the presence of 1% HSA
Assay type: cell-based
pEC50: −log10 of the molar value. Starred links: 1 amine or outer side, 2 acyl side, 3 side chain; linkers in the order of their positions; H or OH if unused. Non-standard residues stand in square brackets, D forms with d. Groups on a side chain read outwards from the residue. *: point of attachment. C20 diacid = O=C(O)CCCCCCCCCCCCCCCCCCC(=O)*; C18 diacid = O=C(O)CCCCCCCCCCCCCCCCC(=O)*; γGlu = O=C(O)[C@H](CCC(=O)[*:2])N[*:1]; αMe4Pal = C[C@](N)(Cc1ccncc1)C(=O)O; αMeY = C[C@](N)(Cc1ccc(O)cc1)C(=O)O; 4Pal = N[C@@H](Cc1ccncc1)C(=O)O; αMeL = CC(C)C[C@](C)(N)C(=O)O; Orn = NCCC[C@H](N)C(=O)O; AEEA = NCCOCCOCC(=O)O; Aib = CC(C)(N)C(=O)O
Cut-off 6 on pEC50, inclusive. At or above means T; below means F.

Example entries begin here.
# substance, label-class
rows = [
    ("H-Y[Aib]QGTFTSDFSQ[αMeL]LDKK([AEEA-γGlu-C18 diacid])AQ[αMe4Pal]AFIEYLIE[Aib]GESSGAPPPSGE-NH2 [Example 233]", "T"),
    ("H-Y[Aib]QGTFTSDFSK[αMeL]LDKK([AEEA-γGlu-C20 diacid])AQ[Aib]AFIEYLLE[Aib]GPSSGAPPPSSG-NH2 [Example 44]", "T"),
]

Query block: Is pEC50 for H-Y[Aib]QGTFTSD[4Pal]S[Orn][αMeL]LD[Orn]K([γGlu-γGlu-C18 diacid])AQ[αMe4Pal]QFIE[αMeY]LLEGGPSSGAPPPSGSEE-NH2 [Example 975] at or above 6?
Result block: F

Query block: Is pEC50 for H-Y[Aib]QGTFTSDYSI[αMeL]LDKQAAK([AEEA-AEEA-γGlu-C20 diacid])QFIEWLIEGGPSSGEPPPGAE-NH2 [Example 319] at or above 6?
Result block: T

Query block: Is pEC50 for H-Y[Aib]QGTFTSDFS[Orn][αMeL]LDKK([AEEA-AEEA-γGlu-C20 diacid])AQ[Aib]AFIEYLLE[Aib]GPSSGAPPPGEG-NH2 [Example 70] at or above 6?
Result block: T

Query block: Is pEC50 for H-Y[Aib]QGTFTSDFSR[αMeL]LDKK([AEEA-γGlu-C18 diacid])AQ[Aib]AFIEYLLE[Aib]GPSSGAPPPSGS-NH2 [Example 79] at or above 6?
Result block: T
